Catalogue of Minimum bactericidal/fungicidal concentration K. pneumoniae Light readings, one per entry.
Test system: clinical strain of Klebsiella pneumoniae
Experiment: Antimicrobial screening, photobactericidal efficacy
Type: cell-based
Conditions: illuminated 20 min, LED 660 nm, 6.2 J cm^−2
MEASURED ATTRIBUTE: Minimum bactericidal/fungicidal concentration K. pneumoniae Light (µM)

• CCCCN(CCCC)c1ccc2nc3ccc(N(CC)CCN(CC)CC)cc3[s+]c2c1 [Example 7c] = 6.25
• CO[Si](CCCNc1ccc2nc3ccc(N(C)C)cc3[s+]c2c1)(OC)OC [Example 2b] = 1.56
• CCCN(CCC)c1ccc2nc3ccc(N(CCCN(C)C)CCCN(C)C)cc3[s+]c2c1 [Example 7e] = 3.13
• CCCCN(CCCC)c1ccc2nc3ccc(N4CCN(CCN5CCN(c6ccc7nc8ccc(N(CCCC)CCCC)cc8[s+]c7c6)CC5)CC4)cc3[s+]c2c1.[I-].[I-] [Example 7g] = 3.13
